Test system: BEN
assay_name: relative viability (nuclei count vs DMSO), 5 days (fraction); higher = more cells survive
stated_conditions: first compound 0.002 µM
Assign relative viability to each entry below.

In the examples that follow, each entry is paired with its recorded relative viability.
compound	quantity_measured	observed_value
CC(=O)O[C@@]12CO[C@@H]1C[C@H](O)[C@@]1(C)C(=O)[C@H](O)C3=C(C)[C@@H](OC(=O)[C@H](O)[C@@H](NC(=O)OC(C)(C)C)c4ccccc4)C[C@@](O)([C@@H](OC(=O)c4ccccc4)[C@H]21)C3(C)C [Docetaxel] + CC(=O)c1c(C)c2cnc(Nc3ccc(N4CCNCC4)cn3)nc2n(C2CCCC2)c1=O [Palbociclib] (partner 0.5 µM)	relative viability	0.39
CC(=O)O[C@@]12CO[C@@H]1C[C@H](O)[C@@]1(C)C(=O)[C@H](O)C3=C(C)[C@@H](OC(=O)[C@H](O)[C@@H](NC(=O)OC(C)(C)C)c4ccccc4)C[C@@](O)([C@@H](OC(=O)c4ccccc4)[C@H]21)C3(C)C [Docetaxel] + CS(=O)(=O)CCNCc1ccc(-c2ccc3ncnc(Nc4ccc(OCc5cccc(F)c5)c(Cl)c4)c3c2)o1 [Lapatinib] (partner 2 µM)	relative viability	0.233
CC(=O)O[C@@]12CO[C@@H]1C[C@H](O)[C@@]1(C)C(=O)[C@H](O)C3=C(C)[C@@H](OC(=O)[C@H](O)[C@@H](NC(=O)OC(C)(C)C)c4ccccc4)C[C@@](O)([C@@H](OC(=O)c4ccccc4)[C@H]21)C3(C)C [Docetaxel] + C[C@]1(O)C[C@@H](c2nc(-c3ccc4ccc(-c5ccccc5)nc4c3)c3c(N)nccn32)C1 [Linsitinib] (partner 1 µM)	relative viability	0.473

Here is another compound to look at.
Prompt: State the recorded relative viability for this entry: CC(=O)O[C@@]12CO[C@@H]1C[C@H](O)[C@@]1(C)C(=O)[C@H](O)C3=C(C)[C@@H](OC(=O)[C@H](O)[C@@H](NC(=O)OC(C)(C)C)c4ccccc4)C[C@@](O)([C@@H](OC(=O)c4ccccc4)[C@H]21)C3(C)C [Docetaxel] + COc1cccc2cc(-c3nc([C@H]4CC[C@H](C(=O)O)CC4)n4ncnc(N)c34)[nH]c12 [OSI-027] (partner 0.5 µM)
Completion: 0.241
